Data provenance is ChEMBL document CHEMBL2321781.

# pIC50 per entry
Tested on: Plasmodium falciparum
Assay: microbe, parasite or virus in culture
Conditions: NF54
Description: Antimalarial activity against chloroquine-sensitive Plasmodium falciparum NF54 after 72 hrs by [3H]hypoxanthine incorporation assay
pIC50 is defined as minus the log10 of a concentration measured in mol/L.

# annotated cases, reported pIC50 shown
Cn1c2nc3ccccc3c-2cc2ccccc21 [NEOCRYPTOLEPINE]    5.80
Cn1c2nc3ccccc3c-2c(NCCCCCCNC(=O)Nc2ccccc2)c2ccccc21    7.59
Cn1c2nc3ccccc3c-2c(NCCCN)c2cc(F)ccc21    7.30
Cn1c2nc3ccccc3c-2c(NCCCCCCN)c2ccccc21    7.01

Give pIC50; test system Plasmodium falciparum; compound `Cn1c2nc3ccccc3c-2c(NCCCNC(=S)Nc2ccccc2)c2ccccc21`
8.04

Give pIC50; test system Plasmodium falciparum; compound `Cn1c2nc3ccccc3c-2c(NCCCNC(=O)Nc2ccccc2)c2cc(Cl)ccc21`
8.66

Give pIC50; test system Plasmodium falciparum; compound `Cn1c2nc3ccccc3c-2c(NCCCNC(=O)Nc2ccccc2)c2cc([N+](=O)[O-])ccc21`
8.68

Give pIC50; test system Plasmodium falciparum; compound `Cn1c2nc3ccccc3c-2c(NCCCNS(=O)(=O)c2ccccc2)c2ccccc21`
7.20

Give pIC50; test system Plasmodium falciparum; compound `Cn1c2nc3ccccc3c-2c(NCCCN)c2cc(Br)ccc21`
7.98

Give pIC50; test system Plasmodium falciparum; compound `COc1ccc2c(c1)c(NCCCN)c1c3ccccc3nc-1n2C`
7.13
